Target: AmpC β-lactamase (UniProt P18539)
Format: biochemical
Conditions: read-out: IC50 (nM) AmpC
MEASURED_ENDPOINT: IC50 (nM)
Number only, in nM; omit the unit.

{"MOLECULE": "C[C@]1(Cn2ccnn2)[C@H](C(=O)O)N2C(=O)C[C@H]2S1(=O)=O [Tazobactam, reference compound]", "IC50 / nM": 47700}

--- query ---
Look up IC50: CON=C[C@@]1(C)[C@H](C(=O)O)N2C(=O)[C@@H](CO)[C@H]2S1(=O)=O
280

---

Below: a set of entries, each annotated with reported MIC (μg/ml; 1:1) S. marcescens.
System: S. marcescens (AmpC, Class C)
Test: Microbiological assay, broth MIC in combination with piperacillin
Type: cell-based
Conditions: strain GC4132, AmpC (Class C), piperacillin:inhibitor ratio 1:1
Numeric only. Scale: µg/mL

Check out these entries, answers already filled in.
{"COMPOUND": "C[C@]1(/C=C\\C#N)[C@H](C(=O)O)N2C(=O)[C@@H](CO)[C@H]2S1(=O)=O [Example 2 (cis)]", "ASSAYED_TARGET": "S. marcescens (AmpC, Class C)", "MEASURED_ENDPOINT": "MIC (μg/ml; 1:1) S. marcescens", "VALUE_MEASURED": 8}
{"COMPOUND": "C[C@]1(/C=C/C#N)[C@H](C(=O)O)N2C(=O)[C@@H](CO)[C@H]2S1(=O)=O [Example 2 (trans)]", "ASSAYED_TARGET": "S. marcescens (AmpC, Class C)", "MEASURED_ENDPOINT": "MIC (μg/ml; 1:1) S. marcescens", "VALUE_MEASURED": 4}
{"COMPOUND": "CON=C[C@@]1(C)[C@H](C(=O)O)N2C(=O)[C@@H](CO)[C@H]2S1(=O)=O", "ASSAYED_TARGET": "S. marcescens (AmpC, Class C)", "MEASURED_ENDPOINT": "MIC (μg/ml; 1:1) S. marcescens", "VALUE_MEASURED": 16}

Switching to the query record.
If you can, please state the reported MIC (μg/ml; 1:1) S. marcescens value of C[C@]1(Cn2ccnn2)[C@H](C(=O)O)N2C(=O)C[C@H]2S1(=O)=O [Tazobactam, reference compound] .
32

---

Molecular target: AmpC β-lactamase (UniProt P18539)
Assay type: biochemical
Details: 10 minute preincubation of enzyme with inhibitor at 25° C., nitrocefin substrate; read-out: IC50 (nM) AmpC
MEASURED_ENDPOINT: IC50 (nM)
Entry rule: numbers only, all in nM.

{"COMPOUND": "C[C@]1(/C=C/C#N)[C@H](C(=O)O)N2C(=O)[C@@H](CO)[C@H]2S1(=O)=O [Example 2 (trans)]", "ASSAYED_TARGET": "AmpC β-lactamase (UniProt P18539)", "VALUE_MEASURED": 280}

In the following, a different compound is considered.
If you can, please state the reported IC50 value of C[C@]1(/C=C\C#N)[C@H](C(=O)O)N2C(=O)[C@@H](CO)[C@H]2S1(=O)=O [Example 2 (cis)] .
270

The measured values listed here are drawn from patent US6395726B1.
